Recorded IC50 for the following compounds
SYSTEM_UNDER_TEST: mTORC1 (Homo sapiens, UniProt P42345+P62942)
Construct: endogenous in cells; host or cells: PC3 cells (human prostate adenocarcinoma)
METHOD: Inhibition assay for mTORC1: phosphorylation of pS6K at Thr389, AlphaLISA SureFire in PC3 cells
Assay type: cell-based
CONDITION_CONTEXT: PC3 cells, 24 hours treatment, pS6K Thr389; analogs substituted at C40 and C16 (C16 diastereomer mixtures not isolated); read-out: pIC50 mTORC1 (converted)

# COMPOUND, SYSTEM_UNDER_TEST, IC50
records = [
    ("CO[C@@H]1C[C@H](C[C@@H](C)[C@@H]2CC(=O)[C@H](C)/C=C(\\C)[C@@H](O)[C@@H](OC)C(=O)[C@H](C)C[C@H](C)/C=C/C=C/C=C(\\C)C(OCCc3ccccc3)C[C@@H]3CC[C@@H](C)[C@@](O)(O3)C(=O)C(=O)N3CCCCC3C(=O)O2)CC[C@H]1OC(=O)NCCO (stereo partly shown)", "mTORC1 (Homo sapiens, UniProt P42345+P62942)", "< 0.316 nM"),
    ("CO[C@@H]1C[C@H](C[C@@H](C)[C@@H]2CC(=O)[C@H](C)/C=C(\\C)[C@@H](O)[C@@H](OC)C(=O)[C@H](C)C[C@H](C)/C=C/C=C/C=C(\\C)C(OCCc3ccccc3)C[C@@H]3CC[C@@H](C)[C@@](O)(O3)C(=O)C(=O)N3CCCCC3C(=O)O2)CC[C@H]1OC(=O)N(C)CCN(C)C (stereo partly shown)", "mTORC1 (Homo sapiens, UniProt P42345+P62942)", "< 0.316 nM"),
    ("CO[C@@H]1C[C@H](C[C@@H](C)[C@@H]2CC(=O)[C@H](C)/C=C(\\C)[C@@H](O)[C@@H](OC)C(=O)[C@H](C)C[C@H](C)/C=C/C=C/C=C(\\C)C(OCCO)C[C@@H]3CC[C@@H](C)[C@@](O)(O3)C(=O)C(=O)N3CCCCC3C(=O)O2)CC[C@H]1OCCCO (stereo partly shown)", "mTORC1 (Homo sapiens, UniProt P42345+P62942)", "< 0.316 nM"),
    ("CO[C@@H]1C[C@H](C[C@@H](C)[C@@H]2CC(=O)[C@H](C)/C=C(\\C)[C@@H](O)[C@@H](OC)C(=O)[C@H](C)C[C@H](C)/C=C/C=C/C=C(\\C)C(OCCO)C[C@@H]3CC[C@@H](C)[C@@](O)(O3)C(=O)C(=O)N3CCCCC3C(=O)O2)CC[C@H]1OCCCN1CCOC(C)(C)C1 (stereo partly shown)", "mTORC1 (Homo sapiens, UniProt P42345+P62942)", "< 0.316 nM"),
    ("COCCCCOC1C[C@@H]2CC[C@@H](C)[C@@](O)(O2)C(=O)C(=O)N2CCCCC2C(=O)O[C@H]([C@H](C)C[C@@H]2CC[C@@H](OCCCN3CCOCC3)[C@H](OC)C2)CC(=O)[C@H](C)/C=C(\\C)[C@@H](O)[C@@H](OC)C(=O)[C@H](C)C[C@H](C)/C=C/C=C/C=C/1C (stereo partly shown)", "mTORC1 (Homo sapiens, UniProt P42345+P62942)", "< 0.316 nM"),
]

Any idea what IC50 came out for CO[C@@H]1C[C@H](C[C@@H](C)[C@@H]2CC(=O)[C@H](C)/C=C(\C)[C@@H](O)[C@@H](OC)C(=O)[C@H](C)C[C@H](C)/C=C/C=C/C=C(\C)C(OCCO)C[C@@H]3CC[C@@H](C)[C@@](O)(O3)C(=O)C(=O)N3CCCCC3C(=O)O2)CC[C@H]1OC(=O)N(C)CCN1CCOCC1 (stereo partly shown) on mTORC1 (Homo sapiens, UniProt P42345+P62942)?
< 0.316 nM

Any idea what IC50 came out for COCCOCCOC1C[C@@H]2CC[C@@H](C)[C@@](O)(O2)C(=O)C(=O)N2CCCCC2C(=O)O[C@H]([C@H](C)C[C@@H]2CC[C@@H](OCCO)[C@H](OC)C2)CC(=O)[C@H](C)/C=C(\C)[C@@H](O)[C@@H](OC)C(=O)[C@H](C)C[C@H](C)/C=C/C=C/C=C/1C (stereo partly shown) on mTORC1 (Homo sapiens, UniProt P42345+P62942)?
< 0.316 nM

---

SYSTEM_UNDER_TEST: mTORC2 (Homo sapiens, UniProt P42345+P62942)
Construct: endogenous in cells; host or cells: PC3 cells (human prostate adenocarcinoma)
METHOD: Inhibition assay for mTORC2: phosphorylation of pAkt at Ser473, AlphaLISA SureFire in PC3 cells
Type: cell-based
CONDITION_CONTEXT: PC3 cells, 24 hours treatment, analogs substituted at C40 and C16 (C16 diastereomer mixtures not isolated), read-out: pIC50 mTORC2 (converted)
Recorded IC50 for the following compounds

# COMPOUND, IC50
records = [
    ("COCCOC1C[C@@H]2CC[C@@H](C)[C@@](O)(O2)C(=O)C(=O)N2CCCCC2C(=O)O[C@H]([C@H](C)C[C@@H]2CC[C@@H](OCCCN3CCOCC3)[C@H](OC)C2)CC(=O)[C@H](C)/C=C(\\C)[C@@H](O)[C@@H](OC)C(=O)[C@H](C)C[C@H](C)/C=C/C=C/C=C/1C (some centres unmarked)", "1 to 10 µM"),
]

Item under review: CO[C@@H]1C[C@H](C[C@@H](C)[C@@H]2CC(=O)[C@H](C)/C=C(\C)[C@@H](O)[C@@H](OC)C(=O)[C@H](C)C[C@H](C)/C=C/C=C/C=C(\C)C(OCCO)C[C@@H]3CC[C@@H](C)[C@@](O)(O3)C(=O)C(=O)N3CCCCC3C(=O)O2)CC[C@H]1OCCO (some centres unmarked) . Reported IC50?
> 10 µM

---

Recorded IC50 for the following compounds
SYSTEM_UNDER_TEST: mTORC2 (Homo sapiens, UniProt P42345+P62942)
Construct: endogenous in cells; host or cells: PC3 cells (human prostate adenocarcinoma)
METHOD: Inhibition assay for mTORC2: phosphorylation of pAkt at Ser473, AlphaLISA SureFire in PC3 cells
Format: cell-based
CONDITION_CONTEXT: PC3 cells, 24 hours treatment, analogs substituted at C40 and C16 (C16 diastereomer mixtures not isolated), read-out: pIC50 mTORC2 (converted)

# COMPOUND, MEASURED_VALUE
measured = [
    ("CO[C@@H]1C[C@H](C[C@@H](C)[C@@H]2CC(=O)[C@H](C)/C=C(\\C)[C@@H](O)[C@@H](OC)C(=O)[C@H](C)C[C@H](C)/C=C/C=C/C=C(\\C)C(OCCO)C[C@@H]3CC[C@@H](C)[C@@](O)(O3)C(=O)C(=O)N3CCCCC3C(=O)O2)CC[C@H]1OC(=O)N(C)CCCN(C)C (stereo partly shown)", "> 10 µM"),
    ("COCCCO[C@@H]1CC[C@@H](C[C@@H](C)[C@@H]2CC(=O)[C@H](C)/C=C(\\C)[C@@H](O)[C@@H](OC)C(=O)[C@H](C)C[C@H](C)/C=C/C=C/C=C(\\C)C(OCCOC)C[C@@H]3CC[C@@H](C)[C@@](O)(O3)C(=O)C(=O)N3CCCCC3C(=O)O2)C[C@H]1OC (stereo partly shown)", "> 10 µM"),
]

Item under review: CO[C@@H]1C[C@H](C[C@@H](C)[C@@H]2CC(=O)[C@H](C)/C=C(\C)[C@@H](O)[C@@H](OC)C(=O)[C@H](C)C[C@H](C)/C=C/C=C/C=C(\C)C(OCC3COC3)C[C@@H]3CC[C@@H](C)[C@@](O)(O3)C(=O)C(=O)N3CCCCC3C(=O)O2)CC[C@H]1OCCCO (stereo partly shown) . Reported IC50?
1 to 10 µM

Item under review: CO[C@@H]1C[C@H](C[C@@H](C)[C@@H]2CC(=O)[C@H](C)/C=C(\C)[C@@H](O)[C@@H](OC)C(=O)[C@H](C)C[C@H](C)/C=C/C=C/C=C(\C)C(OCCc3ccccc3)C[C@@H]3CC[C@@H](C)[C@@](O)(O3)C(=O)C(=O)N3CCCCC3C(=O)O2)CC[C@H]1OC(=O)N(C)CCN(C)C (stereo partly shown) . Reported IC50?
< 1 µM

Item under review: COCCOC1C[C@@H]2CC[C@@H](C)[C@@](O)(O2)C(=O)C(=O)N2CCCCC2C(=O)O[C@H]([C@H](C)C[C@@H]2CC[C@@H](OCCCN3C[C@@H](C)O[C@@H](C)C3)[C@H](OC)C2)CC(=O)[C@H](C)/C=C(\C)[C@@H](O)[C@@H](OC)C(=O)[C@H](C)C[C@H](C)/C=C/C=C/C=C/1C (stereo partly shown) . Reported IC50?
1 to 10 µM

Item under review: COCCCCOC1C[C@@H]2CC[C@@H](C)[C@@](O)(O2)C(=O)C(=O)N2CCCCC2C(=O)O[C@H]([C@H](C)C[C@@H]2CC[C@@H](OCCCN3CCOCC3)[C@H](OC)C2)CC(=O)[C@H](C)/C=C(\C)[C@@H](O)[C@@H](OC)C(=O)[C@H](C)C[C@H](C)/C=C/C=C/C=C/1C (stereo partly shown) . Reported IC50?
1 to 10 µM

Item under review: COCCCCOC1C[C@@H]2CC[C@@H](C)[C@@](O)(O2)C(=O)C(=O)N2CCCCC2C(=O)O[C@H]([C@H](C)C[C@@H]2CC[C@@H](OCCO)[C@H](OC)C2)CC(=O)[C@H](C)/C=C(\C)[C@@H](O)[C@@H](OC)C(=O)[C@H](C)C[C@H](C)/C=C/C=C/C=C/1C (stereo partly shown) . Reported IC50?
1 to 10 µM

All values here come from patent US12565505B2.
